Below, each of the compounds is paired with its reported growth value.
- Test system: UO-31 renal
- Assay Info: NCI-60 one-dose screen, 48 h (100 = growth as untreated, 0 = no growth, -100 = all killed)
- Condition Label: 10 µM unless noted
- Experimental: Growth inhibition of the UO-31 human tumor cell line is measured as a screen for anti-cancer activity. Cells are grown in 96 well plates and exposed to the test compound for 48 hours. Compounds are tested at a single concentration, which is 10^-5 M for most compounds. The reported endpoint is percent growth (GI% or GIPRCNT), where numbers from 0 - 100% represent growth inhibition, and numbers from -100% - 0 represent cell death. For example, a value of 40 represents 60% growth inhibition. […]
This is part of a sample that, as a whole, favours compounds with a hit. Of some 83,000 tested, about 20% had one in any assay.
Give a bare numeral; the unit % is implied.

Answered examples (5):
response.value for `O=C(Nc1ccc(-c2nc(-c3cccc(OCCN4CCOCC4)c3)c(-c3ccnc(Br)c3)[nH]2)cc1)c1ccccc1` (field: growth) = -51.9

response.value for O=C1CSC(c2c(Cl)cccc2Cl)N1c1nc(Cl)cc(=O)[nH]1 (stereo not given) (field: growth) = 79.8

response.value for `COc1ccc2c(c1OC)C(=O)O[C@H]2[C@H]1c2c(cc3c(c2OC)OCO3)CCN1C` (field: growth) = 85.9

response.value for `O=C(Nc1ccc(I)cc1F)c1cc(I)ccc1O` (field: growth) = -9.71

response.value for `O=c1c2cccc(F)c2sc2c(NCCCNCCO)nc3ccccc3c12` (field: growth) = 19

***
response.value for `CCc1ccc2nc(NC(=O)Cc3csc(NC(=O)c4ccco4)n3)sc2c1` (field: growth) = 60.5

response.value for CC(=O)CC(c1cccs1)c1c(-c2ccccc2)[nH]c2ccccc12 (stereo not given) (field: growth) = 71.5

response.value for `COc1cc(C(=O)c2cnc(-c3c[nH]c4cccc(C)c34)[nH]2)cc(OC)c1OC` (field: growth) = 17

response.value for `COc1cc2cc(Oc3ccc(NC(=O)Nc4ccc(F)c(C(F)(F)F)c4)cc3)c(C)nc2cc1OCCN1CCOCC1` (field: growth) = 30.1

response.value for CC1Cc2ccccc2N1NC(=O)c1ccc(Cl)c(S(N)(=O)=O)c1 (stereo not given) (field: growth) = 83.6

response.value for CC1=NN(c2ccc(S(=O)(=O)O)cc2)C(=O)C1N=Nc1ccc(-c2ccc(N=Nc3ccc(OS(=O)(=O)c4ccc(C)cc4)cc3)c(S(=O)(=O)O)c2)cc1 (stereo not given) (field: growth) = 69.8

response.value for `CCCCn1c(=O)c(-c2cc(-c3ccc(Cl)cc3)nc(-c3ccc(Cl)cc3)c2)cc2cc(C)ccc21` (field: growth) = 86.2

response.value for COc1cc(OCc2cccc(-c3ccc(C(O)c4nccs4)cc3)c2C)cc(OC)c1CNCCNC(C)=O (stereo not given) (field: growth) = 89

response.value for `CCCCn1c(-c2ccc(C(=O)O/N=C(\N)c3ccc(OC)cc3)cc2)nc(-c2ccccc2)c1-c1ccccc1` (field: growth) = -93.7

response.value for `CC(C)OC(=O)Nc1ccc(-c2nc(-c3cccc(OCCN4CCOCC4)c3)c(-c3ccnc(Br)c3)[nH]2)cc1` (field: growth) = -15.9

response.value for `S=C(c1cccs1)N1CCN(c2cccc(Cl)c2)CC1` (field: growth) = 88.8

response.value for `O=C1CN(CCN2CC(=O)N(Cc3ccccc3)C(=O)C2)CC(=O)N1Cc1ccccc1` (field: growth) = 76.3

response.value for `O=C(O)c1cn(C2CC2)c2cc(N3CCN(C(=O)Nc4nc(-c5ccc(Cl)cc5)cs4)CC3)c(F)cc2c1=O` (field: growth) = 2.13

response.value for `CCN(CC)S(=O)(=O)c1ccc(NC(=O)CSc2nnc(C)n2-c2ccccc2)cc1` (field: growth) = 80.8

response.value for `COc1ccc(-c2ncnc3c2ncn3CC#CCCl)cc1` (field: growth) = -86.7

response.value for `CCOC(=O)NCCc1ccccc1` (field: growth) = 76.3

response.value for `COc1cc(/C=C/C(=O)/C=C/c2cc(OC)c3c(c2OC)OCO3)c(OC)c2c1OCO2` (field: growth) = 57.3

response.value for `O=C(/C=C/c1sc(Cl)nc1Cl)c1ccc(Br)cc1` (field: growth) = 80.2

response.value for `NCCOc1ncccc1/C=C1\c2ccccc2-c2ccc(C(F)F)cc21` (field: growth) = 31.1

====

- Tested on: HS 578T breast
- Assay Info: NCI-60 one-dose screen, 48 h
- Condition Label: 10 µM unless noted
The panel holds about 83,000 compounds, 20% with a hit somewhere; the sample as a whole holds those more often. The source made the active and inactive calls. The calls were made as follows: active = growth percent below 10; inactive = the rest.
The categories you may choose from are true for active, false for inactive

Observe how each entry below is paired with its result.
(Q) Hello, I am checking results. What call was entered for `CCc1ccc(Oc2c(-c3ccc(OCc4ccc(Cl)cc4)cc3O)nn(C)c2C(F)(F)F)cc1` ?
(A) true

(Q) Hello, I am checking results. What call was entered for `COc1ccc(-c2cc(-c3cc(OC)c(OC)c(OC)c3)nc(N3CCOCC3)c2C#N)cc1` ?
(A) false

(Q) Hello, I am checking results. What call was entered for `Cc1cccc2c(=O)c3c(sc12)c(NCc1ccccc1)nc1ccccc13` ?
(A) false

***
(Q) Hello, I am checking results. What call was entered for `Cc1cc(=O)oc2cc(OC(=O)CN3CCN(C)CC3)ccc12` ?
(A) false

(Q) Hello, I am checking results. What call was entered for `c1ccc(OCc2nnc(-c3ccc(Oc4ccccc4)cc3)o2)cc1` ?
(A) false

====

- System: 786-0 renal
- Assay Info: NCI-60 one-dose screen, 48 h (100 = growth as untreated, 0 = no growth, -100 = all killed)
- Condition Label: 10 µM unless noted
About 83,000 compounds went through this panel and 20% of them were active in at least one assay; those are over-represented in the sample as a whole.
Experimental Endpoint: growth (%)
Give a bare numeral; the unit % is implied.

response.value for `COc1ccc2sc3c(NCCO)nc4ccccc4c3c(=O)c2c1` (field: growth) = 103

response.value for CNc1nc2c(s1)C(c1cc(F)ccc1F)CC(=O)N2 (stereo not given) (field: growth) = 83.9

response.value for `Oc1ccc(CCl)c2cccnc12` (field: growth) = 97.6

response.value for NC[C@@H]1O[C@H](O[C@@H]2[C@@H](CO)OC(O[C@@H]3[C@@H](O)[C@H](N)C[C@H](N)[C@H]3OC3O[C@H](CN)[C@@H](O)[C@H](O)[C@H]3N)[C@@H]2O)[C@H](N)[C@@H](O)[C@@H]1O (stereo not given in full) (field: growth) = 101

response.value for `COc1cc2cc(Oc3ccc(NC(=O)Nc4cccc(C(F)(F)F)c4)cc3)c(C)nc2cc1OCCN1CCOCC1` (field: growth) = 67.3

response.value for `C[N+]1=C(/C=C/c2ccc(O)c3ncccc23)C(C)(C)c2ccccc21` (field: growth) = 66.7

response.value for CN(C)CCN1CCN(c2ncccc2C2Nc3ccccc3-n3cccc32)CC1 (stereo not given) (field: growth) = 91.8

response.value for `CCOC(=O)c1cn2ncnc(Oc3ccc(NC(=O)NCCN4CCN(C)CC4)c(Cl)c3)c2c1C` (field: growth) = 81.8

response.value for O=C(CS(=O)c1oc(-c2cccs2)nc1S(=O)(=O)c1ccc(Br)cc1)c1ccccc1 (stereo not given) (field: growth) = 98.7

response.value for `O=C(Oc1cccc2ccccc12)Oc1cccc2ccccc12` (field: growth) = 110

***
response.value for `O=C(CCN1C(=O)/C(=C/c2ccc(O)cc2)SC1=S)Nc1ccccc1` (field: growth) = 105

response.value for `NCCNc1nc2ccccc2c2c(=O)c3cccc(F)c3sc12` (field: growth) = 76.7

response.value for `c1ccc2cc(C[n+]3ccn(CCCCCCCCCCCCn4cc[n+](Cc5ccc6ccccc6c5)c4)c3)ccc2c1` (field: growth) = 1.28

response.value for `CN(C)c1ccc(/C=N\Nc2cc(=O)[nH]c3ccc(Cl)cc23)cc1` (field: growth) = 102

response.value for `Oc1ccc(Cl)cc1Cc1cc(Cl)cc(Cl)c1O` (field: growth) = 59.5

response.value for `Cc1ccc(C(=O)N/N=C/c2cccc(Oc3ccccc3)c2)cn1` (field: growth) = 18.3

====

- Test system: NCI-H23 lung
- Assay Info: NCI-60 one-dose screen, 48 h (100 = growth as untreated, 0 = no growth, -100 = all killed)
- Condition Label: 10 µM unless noted
- Procedure: Growth inhibition of the NCI-H23 human Non-Small Cell Lung tumor cell line is measured as a screen for anti-cancer activity. Cells are grown in 96 well plates and exposed to the test compound for 48 hours. Compounds are tested at a single concentration, which is 10^-5 M for most compounds. The reported endpoint is percent growth (GI% or GIPRCNT), where numbers from 0 - 100% represent growth inhibition, and numbers from -100% - 0 represent cell death. […]
About 83,000 compounds went through this panel and 20% of them were active in at least one assay; those are over-represented in the sample as a whole.
Checkbox rule: growth lower than 90% = True; growth not lower than 90% = False.

(Q) Hi there! Is growth for `COc1cccc(Cc2nn3cc(-c4ccccc4)nc3s2)c1` below 90%, do you know?
(A) False

(Q) Hi there! Is growth for `CC(C)C(=O)Nc1ccc(-c2nc(-c3cccc(OCCN4CCOCC4)c3)c(-c3ccnc(Br)c3)[nH]2)cc1` below 90%, do you know?
(A) True

Next item in the queue.
(Q) Hi there! Is growth for COc1ccc([C@H]2c3cc(OC)c(OC)cc3C=C(C=O)C2CO)cc1OC (stereo not given in full) below 90%, do you know?
(A) True
